# System: CDK7/cyclinH/MAT1 complex (Homo sapiens)
# Sequence (P50613 whole entry, species assumed): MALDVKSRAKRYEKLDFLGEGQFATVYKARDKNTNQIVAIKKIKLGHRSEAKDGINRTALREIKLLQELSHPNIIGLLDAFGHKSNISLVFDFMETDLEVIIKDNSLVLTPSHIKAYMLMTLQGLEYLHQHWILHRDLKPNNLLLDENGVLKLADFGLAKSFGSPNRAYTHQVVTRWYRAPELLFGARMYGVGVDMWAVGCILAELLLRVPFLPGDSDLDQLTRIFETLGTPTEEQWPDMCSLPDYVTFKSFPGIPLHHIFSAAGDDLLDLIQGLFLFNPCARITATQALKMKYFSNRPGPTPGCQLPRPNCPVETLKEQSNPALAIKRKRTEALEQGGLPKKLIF
# Sequence (P51946 whole entry partner, species assumed): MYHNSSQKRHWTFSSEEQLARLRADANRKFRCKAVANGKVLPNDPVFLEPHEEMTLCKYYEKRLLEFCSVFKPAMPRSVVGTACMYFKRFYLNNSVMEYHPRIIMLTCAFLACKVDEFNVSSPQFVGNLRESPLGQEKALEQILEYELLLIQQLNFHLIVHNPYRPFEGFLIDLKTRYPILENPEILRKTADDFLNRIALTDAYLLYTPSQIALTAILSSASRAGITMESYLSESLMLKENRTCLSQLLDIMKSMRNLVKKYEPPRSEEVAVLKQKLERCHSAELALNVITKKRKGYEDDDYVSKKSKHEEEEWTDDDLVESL
# Sequence (P51948 whole entry partner, species assumed): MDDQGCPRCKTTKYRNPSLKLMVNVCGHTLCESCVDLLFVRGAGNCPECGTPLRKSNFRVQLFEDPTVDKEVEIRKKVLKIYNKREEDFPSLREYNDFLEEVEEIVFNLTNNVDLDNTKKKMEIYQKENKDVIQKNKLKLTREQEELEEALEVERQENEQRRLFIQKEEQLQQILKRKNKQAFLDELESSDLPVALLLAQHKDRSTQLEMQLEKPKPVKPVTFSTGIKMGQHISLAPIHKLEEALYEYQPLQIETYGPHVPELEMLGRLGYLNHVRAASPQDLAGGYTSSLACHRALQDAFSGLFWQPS
# Measurement notes: In-vitro enzymatic inhibitory activity testing, CDK7 inhibition assay (Caliper EZ Reader II)
# Experimental conditions: CDK7/cyclinH/MAT1 6 nM, 180 min at 27° C.
Assay metric: IC50

Solved entries:
{"Compound": "CC1(C)COC[C@@H](Nc2ncc(C(F)(F)F)c(-c3c[nH]c4nc(C#N)ccc34)n2)CN1 (single isomer, unassigned)", "IC50": "20 to 200 nM"}
{"Compound": "CP(C)(=O)c1cccc2c(-c3nc(NC4(CO)CC(F)C4)ncc3C(F)(F)F)c[nH]c12 (stereo not drawn)", "IC50": "20 to 200 nM"}
{"Compound": "CP(C)(=O)c1cccc2c(-c3nc(NC4CCC[C@@H]4CN)ncc3C(F)(F)F)c[nH]c12 (stereo in doubt)", "IC50": "< 20 nM"}

Req: // lookup IC50 | system=CDK7/cyclinH/MAT1 complex (Homo sapiens) | key= CP(C)(=O)c1cccc2c(-c3nc(NCC(O)C(F)F)ncc3C(F)(F)F)c[nH]c12 (single isomer, unassigned) [Compound 125]
Resp: 20 to 200 nM

Req: // lookup IC50 | system=CDK7/cyclinH/MAT1 complex (Homo sapiens) | key= FC(F)(F)c1cnc(NC2C3CNCC32)nc1-c1c[nH]c2nc(N3CCOCC3)ccc12 (stereo not drawn)
Resp: 200 to 5000 nM

Req: // lookup IC50 | system=CDK7/cyclinH/MAT1 complex (Homo sapiens) | key= CP(C)(=O)c1cccc2c(-c3nc(NC4(CO)CCOC4)ncc3C(F)(F)F)c[nH]c12 (stereo not drawn) [Compound 117]
Resp: < 20 nM

Req: // lookup IC50 | system=CDK7/cyclinH/MAT1 complex (Homo sapiens) | key= CP(C)(=O)c1cccc2c(-c3nc(N[C@@H]4CC[C@H]4O)ncc3C(F)(F)F)c[nH]c12
Resp: < 20 nM

Req: // lookup IC50 | system=CDK7/cyclinH/MAT1 complex (Homo sapiens) | key= C[C@@H](CO)Nc1ncc(C(F)(F)F)c(-c2c[nH]c3nc(C4=CCOCC4)ccc23)n1
Resp: 20 to 200 nM

Req: // lookup IC50 | system=CDK7/cyclinH/MAT1 complex (Homo sapiens) | key= CP(C)(=O)c1cccc2c(-c3nc(NC4CC(F)(F)CC4O)ncc3C(F)(F)F)c[nH]c12 (single isomer, unassigned) [Compound 191]
Resp: < 20 nM

Req: // lookup IC50 | system=CDK7/cyclinH/MAT1 complex (Homo sapiens) | key= CN(C)[C@H]1CC[C@H](Nc2ncc(C(F)(F)F)c(-c3c[nH]c4c(P(C)(C)=O)cccc34)n2)C1
Resp: < 20 nM

Req: // lookup IC50 | system=CDK7/cyclinH/MAT1 complex (Homo sapiens) | key= CP(C)(=O)c1cccc2c(-c3nc(NCC4(O)CCOC4)ncc3C(F)(F)F)c[nH]c12 (single isomer, unassigned) [Compound 122]
Resp: 20 to 200 nM

Req: // lookup IC50 | system=CDK7/cyclinH/MAT1 complex (Homo sapiens) | key= CN(C)[C@H]1CC[C@H](Nc2ncc(C(F)(F)F)c(-c3c[nH]c4nc(C#N)ccc34)n2)C1
Resp: 20 to 200 nM
